meta.source: the supplement of paper PMC8253809

System: HGGX39 (paediatric high-grade glioma line)
Experiment: growth inhibition (% activity, log2 RLU normalised to DMSO / staurosporine); higher = more growth inhibition
Conditions: 33 µM
Reported metric: growth inhibition (%)
One number for each entry, in %.

Use the examples below as a reference point.
NC(=O)Cc1cccc(C(=O)c2ccccc2)c1N	-1.73
COc1ncnc(NS(=O)(=O)c2ccc(N)cc2)c1OC	0.995
CC[C@H]1OC(=O)[C@H](C)[C@@H](O[C@H]2C[C@@](C)(OC)[C@@H](O)[C@H](C)O2)[C@H](C)[C@@H](O[C@@H]2O[C@H](C)C[C@H](N(C)C)[C@H]2O)[C@](C)(O)C[C@@H](C)C(=O)[C@H](C)[C@@H](O)[C@]1(C)O	1.08

Give one value of growth inhibition per listed compound.
1. C#Cc1cccc(Nc2ncnc3cc(OCCOC)c(OCCOC)cc23)c1
2. CCC[C@H](N[C@@H](C)C(=O)N1[C@H](C(=O)O)C[C@@H]2CCCC[C@@H]21)C(=O)OCC
3. COc1c(N2C[C@@H]3CCCN[C@@H]3C2)c(F)cc2c(=O)c(C(=O)O)cn(C3CC3)c12
4. CCOc1ccc(NC(C)=O)cc1
5. CO[C@H]1/C=C/O[C@@]2(C)Oc3c(C)c(O)c4c(O)c(c5c(nc6cc(C)ccn65)c4c3C2=O)NC(=O)/C(C)=C\C=C\[C@H](C)[C@H](O)[C@@H](C)[C@@H](O)[C@@H](C)[C@H](OC(C)=O)[C@@H]1C

// result
1. 5.69
2. 2.66
3. 3.99
4. 2.76
5. 1.27
